Below, each entry is listed alongside its reported self-cleavage.
B1: CPEB3 Ribozyme (parent)
chain: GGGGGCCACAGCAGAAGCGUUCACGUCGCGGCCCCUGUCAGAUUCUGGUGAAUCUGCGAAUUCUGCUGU

- Variants of: B1
- assay_info: self-cleavage, relative activity (ratio to wild type); higher = more cleavage; co-transcriptional
Answer with a number only.

GGGGGCCACAGCAGAAGCGUUCACGUCGCGGCCCCUGUCGGAUUCUGGUGAAUCUGCGAAUUCUGGUGU; 0.67

# input variant: GGGGGCCACAGCAGAAGCGUUCACGACGCGGCCCCUGUCAGAUUCUGUUGAAUCUGCGAAUUCUGCUGU ; wanted: its self-cleavage
0.928

Check GGGGGCCACAGCAGAAGCGUUCACGUCGCGGCACCUGUCAGAUUCUGGUGAAUCUGCGAAUUCUACUGU too.
0.786

Check GGGGGCCAAAGCAGAAGCGUUCACGUCGCGGCCCCUGUCAGAUUCUCGUGAAUCUGCGAAUUCUGCUGU too.
1

Check GGGGGCCACAGCAGAAGCGUUCACGUCGCGGCCCUUGUCAGAUUCUGGUGAAUCUGCGAAUUCUGCUGA too.
0.967

Check GGGGGCCACAGCAGAAGCGUUCACGUCGCGGCCCCUGUCAGAUUCUGGUGAAUCUGCAAAUGCUGCUGU too.
0.884
